// provenance: ChEMBL document CHEMBL2424622

Target: Mitogen-activated protein kinase 4 (Homo sapiens, UniProt P31152)
Sequence (P31152 whole entry): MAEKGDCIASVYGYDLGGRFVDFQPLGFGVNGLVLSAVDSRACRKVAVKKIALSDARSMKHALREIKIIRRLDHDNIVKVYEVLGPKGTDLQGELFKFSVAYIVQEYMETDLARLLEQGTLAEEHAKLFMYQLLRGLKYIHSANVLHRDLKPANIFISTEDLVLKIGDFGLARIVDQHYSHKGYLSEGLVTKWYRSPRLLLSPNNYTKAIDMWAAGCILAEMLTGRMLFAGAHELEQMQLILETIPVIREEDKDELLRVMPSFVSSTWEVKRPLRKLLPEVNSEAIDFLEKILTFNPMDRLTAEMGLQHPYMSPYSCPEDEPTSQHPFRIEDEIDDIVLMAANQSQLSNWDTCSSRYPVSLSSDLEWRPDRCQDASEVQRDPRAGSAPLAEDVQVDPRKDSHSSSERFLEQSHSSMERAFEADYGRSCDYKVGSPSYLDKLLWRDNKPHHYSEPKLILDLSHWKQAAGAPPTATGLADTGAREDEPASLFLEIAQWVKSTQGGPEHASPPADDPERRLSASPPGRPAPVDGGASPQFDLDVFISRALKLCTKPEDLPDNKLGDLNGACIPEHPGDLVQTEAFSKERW
Experiment: Binding affinity to ERK4 (unknown origin)
measuredQuantity: pKd
pKd (log units): -log10 of the concentration in mol/L.

// lookup pKd | system=Mitogen-activated protein kinase 4 (Homo sapiens, UniProt P31152) | key= `CS(=O)(=O)CCCOc1cccc2c1ccn2-c1ccnc(N[C@H]2CC[C@H](C(=O)N3CCC(O)CC3)CC2)n1`
4.96

###

Target: Mitogen-activated protein kinase 9 (Homo sapiens, UniProt P45984)
Sequence (P45984 whole entry, looked up): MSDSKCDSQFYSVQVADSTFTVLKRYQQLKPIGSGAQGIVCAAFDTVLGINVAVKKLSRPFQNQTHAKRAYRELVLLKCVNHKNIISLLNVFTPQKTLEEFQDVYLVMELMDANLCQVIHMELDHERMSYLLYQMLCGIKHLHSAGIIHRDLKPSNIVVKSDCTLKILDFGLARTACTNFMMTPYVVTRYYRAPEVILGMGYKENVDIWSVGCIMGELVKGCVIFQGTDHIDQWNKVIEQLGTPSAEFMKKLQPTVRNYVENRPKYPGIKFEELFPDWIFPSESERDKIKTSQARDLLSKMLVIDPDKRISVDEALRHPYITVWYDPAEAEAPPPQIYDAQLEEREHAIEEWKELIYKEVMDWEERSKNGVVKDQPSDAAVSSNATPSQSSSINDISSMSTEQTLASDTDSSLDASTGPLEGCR
Experiment: Ratio of IC50 for human JNK2 in presence of human serum to IC50 for human JNK2 in absence of human serum
measuredQuantity: Ratio IC50

# example entries with known answers
- CC(C)(O)[C@H]1CC[C@H](Nc2nccc(-n3ccc4c(OCCCS(C)(=O)=O)cccc43)n2)CC1: 6.3
- CCCOc1cccc2c1cnn2-c1ccnc(N[C@H]2CC[C@H](O)CC2)n1: 147
- OCCCOc1cccc2c1cnn2-c1ccnc(N[C@H]2CC[C@H](O)CC2)n1: 28

(a) COC1CCN(C(=O)[C@H]2CC[C@H](Nc3nccc(-n4ccc5c(OCCCS(C)(=O)=O)cccc54)n3)CC2)CC1
(b) OCC(O)COc1cccc2c1cnn2-c1ccnc(N[C@H]2CC[C@H](O)CC2)n1 (stereo not given in full)
From the items above, decide which of a and b has the lower Ratio IC50 reading. In your reply, give the label of the chosen option.
a

###

Molecular target: Myosin light chain kinase family member 4 (Homo sapiens)
Sequence (Q86YV6 whole entry): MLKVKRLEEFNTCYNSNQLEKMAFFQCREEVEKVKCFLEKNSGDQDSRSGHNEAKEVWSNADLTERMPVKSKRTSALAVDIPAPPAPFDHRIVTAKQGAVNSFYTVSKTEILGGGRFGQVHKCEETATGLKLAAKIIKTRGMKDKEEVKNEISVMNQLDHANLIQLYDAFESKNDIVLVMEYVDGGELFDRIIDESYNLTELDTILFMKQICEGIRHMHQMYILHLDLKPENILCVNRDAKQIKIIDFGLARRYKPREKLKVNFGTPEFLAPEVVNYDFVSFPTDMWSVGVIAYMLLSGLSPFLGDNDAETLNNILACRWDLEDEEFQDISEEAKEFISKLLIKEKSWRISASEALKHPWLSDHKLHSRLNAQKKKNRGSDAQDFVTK
measuredQuantity: Kd (nM)
The reply should contain only the number, in nM.

Which value of Kd has been reported for `CS(=O)(=O)CCCOc1cccc2c1ccn2-c1ccnc(N[C@H]2CC[C@H](C(=O)N3CCC(O)CC3)CC2)n1` in the records?
620

###

Target: UniProt:P49760
Sequence (P49760 whole entry, looked up): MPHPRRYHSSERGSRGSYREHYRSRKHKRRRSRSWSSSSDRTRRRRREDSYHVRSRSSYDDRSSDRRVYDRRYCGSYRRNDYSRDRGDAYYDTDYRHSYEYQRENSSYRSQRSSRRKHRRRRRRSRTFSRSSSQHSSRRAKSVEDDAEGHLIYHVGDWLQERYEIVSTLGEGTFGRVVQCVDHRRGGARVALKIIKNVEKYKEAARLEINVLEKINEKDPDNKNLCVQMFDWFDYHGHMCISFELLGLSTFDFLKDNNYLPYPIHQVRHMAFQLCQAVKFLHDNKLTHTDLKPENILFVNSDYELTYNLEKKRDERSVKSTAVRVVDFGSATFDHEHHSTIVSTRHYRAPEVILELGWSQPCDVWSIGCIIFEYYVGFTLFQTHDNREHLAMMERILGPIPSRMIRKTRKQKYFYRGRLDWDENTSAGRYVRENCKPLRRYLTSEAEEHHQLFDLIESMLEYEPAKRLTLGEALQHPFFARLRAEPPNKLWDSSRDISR
Experiment: Competitive binding affinity to CLK2 (unknown origin) at 10 uM in presence of ATP relative to control
measuredQuantity: inhibition (%)

* O[C@H]1CC[C@H](Nc2nccc(-n3ccc4ccccc43)n2)CC1 | 97
* O[C@H]1CC[C@H](Nc2nccc(-n3ncc4ccccc43)n2)CC1 | 99
* O[C@H]1CC[C@H](Nc2nccc(-n3nnc4ccccc43)n2)CC1 | 99
* N[C@H]1CC[C@H](Nc2nccc(-n3nnc4ccccc43)n2)CC1 | 100
* O=C([C@H]1CC[C@H](Nc2nccc(-n3nnc4ccccc43)n2)CC1)N1CCOCC1 | 94
* O[C@H]1CC[C@H](Nc2nccc(-c3n[nH]c4ccccc34)n2)CC1 | 95

###

Assay: AUC (0 to infinity) in Hanover-Wistar rat at 0.5 mg/kg, iv
Format: ADME, organism-based
Parameters: dose 0.5 mg/kg, route intravenous, time infinity
Conditions: plasma
measuredQuantity: AUC(0-inf) (ng·h/mL)
The reply should contain only the number, in ng·h/mL.

Which value of AUC(0-inf) has been reported for `CS(=O)(=O)CCCOc1cccc2c1ccn2-c1ccnc(N[C@H]2CC[C@H](C(=O)N3CCC(O)CC3)CC2)n1` in the records?
1850
